test: CEETOX_H295R_PROG: CeeTox H295R High-throughput Steroidogenesis Assay for Progesterone (PROG) (AID 2283442); conditions: actives raise or lower the signal;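 as to AC50: human H295R adrenal cells primed with 10 µM forskolin before dosing; progesterone secreted into medium by H295R cells measured by HPLC-MS/MS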
The source made the active and inactive calls. The calls were made as follows: active = hit-call score of the fitted dose curve at least 0.9, where 1 is the maximum; inactive = score below 0.9.
Test Readout: AC50

Worked examples, 5 compounds total:
Exercise: Would you mind telling me what AC50 value was observed for "Nc1ccc(F)c([N+](=O)[O-])c1" ?
Key: 50 µM (active)

Exercise: Would you mind telling me what AC50 value was observed for "CC(C)c1cccc(O)c1" ?
Key: inactive

Exercise: Would you mind telling me what AC50 value was observed for "Cc1ccc2n[nH]nc2c1" ?
Key: inactive

Exercise: Would you mind telling me what AC50 value was observed for "CC1(C)[C@H](C(=O)OCc2cccc(Oc3ccccc3)c2)[C@@H]1C=C(Cl)Cl" ?
Key: inactive

Exercise: Would you mind telling me what AC50 value was observed for "O=C(O)C[C@H](O)C[C@H](O)/C=C/c1c(C2CC2)nc2ccccc2c1-c1ccc(F)cc1" ?
Key: 0.0233 µM (active)

Further cases:
Exercise: Would you mind telling me what AC50 value was observed for "O=c1cc(-c2ccccc2)oc2cc(O)cc(O)c12" ?
Key: 16.1 µM (active)

Exercise: Would you mind telling me what AC50 value was observed for "C=CC(C)(C)O" ?
Key: inactive
